FYI, the data here is from PubChem BioAssay.

target: L-lactate dehydrogenase (Plasmodium falciparum (isolate CDC / Honduras)); assay: PfLDH activity inhibition – cell lysate, 3D7 strain, counter-screen for P. falciparum growth inhibition project (AID 2304);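 note: 0% = vehicle and 100% = reference inhibitor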; details: P. falciparum 3D7 crude extract, LDH APAD/NBT absorbance; at 2 µM; hits give high values
Below is a list of entries, each paired with its recorded inhibition value.
Only the number, expressed in %, is required.

# annotated cases, reported inhibition shown
MOLECULE	inhibition, %
CC(C)c1ccc(NC(=O)NC2CCN(CCCCCNC(=O)/C=C/c3ccc(Cl)c(Cl)c3)CC2)cc1	-2
Cc1cc(N2CCCC2)nc(Nc2ccc(NC(=O)c3ccccc3F)cc2)n1	-3
Nc1nc(N)c2cc3ccc(OCc4ccccc4)cc3nc2n1	0
COc1ccc2nccc([C@@H](O)CN3CCC(NCc4nc5ccc(F)cc5[nH]4)CC3)c2c1	-2
COc1ccc2nccc(N3CCC(SCCNCc4ccc5c(n4)NC(=O)CS5)C3)c2n1 (stereo not given)	2

Look up and state reported inhibition for CN(C)C(=O)c1cccc(COc2ccc(N3C(N)=NC(N)=NC3(C)C)cc2Cl)c1
1

Name the recorded inhibition of the item Cc1cc2c(/C=C/C(=O)NC3CCC(CCN4CCc5ccc(C#N)cc5CC4)CC3)cccc2[nH]1 (stereo not given) in your answer.
1

Answer with reported inhibition of OCCCCCCNc1nc(NCc2ccccc2-c2ccc(C(F)(F)F)cc2)nc(N2CCNCC2)n1
2

Name the recorded inhibition of the molecule listed here: O=C(Nc1ccc(Cn2ncc(N3CCCNCC3)c(Cl)c2=O)cc1)Nc1cccc(Oc2ccccc2)c1
-5

Give inhibition for COc1ccc(CNCCc2cccs2)cc1-c1ccc(OC)c(S(=O)(=O)NCCN2CCCC2)c1
1
